Measured values drawn from the supplement of paper PMC6607015 for this set.

Tested on: A431
Test: filipin (cholesterol) integrated intensity within LBPA endosomes, Z-score; higher = more cholesterol in LBPA endosomes
Settings: compound concentration in added solution (µM; 5 µl added to 20 µl cells): 10; 18 h
Structures can show the parent of a compound that is named as a salt.
parameterMeasured: filipin (z-score)

C1N2CN3CN1CN(C2)C3 = -0.379
C#C[C@]1(O)CC[C@H]2[C@@H]3CCc4cc(OC)ccc4[C@H]3CC[C@@]21C = -0.42
CC1(C)NC(=O)N(c2ccc([N+](=O)[O-])c(C(F)(F)F)c2)C1=O [Nilutamide] = -0.474
Cc1cccc(N(C)C(=S)Oc2ccc3ccccc3c2)c1 [Tolnaftate] = -0.301
CN1CCN(CC(=O)N2c3ccccc3C(=O)Nc3cccnc32)CC1 [Pirenzepine dihydrochloride] = -0.555
CC[C@H](c1ccc(O)cc1)[C@@H](CC)c1ccc(O)cc1 = -0.435
CNc1ncnc2c1ncn2[C@@H]1O[C@H](CO)[C@@H](O)[C@H]1O = -0.45
Cc1cnc(NC(=O)C2=C(O)c3ccccc3S(=O)(=O)N2C)s1 = -0.477

Now for the compound whose filipin (z-score) we want.
Param item = CC(CN(C)C)CN1c2ccccc2Sc2ccccc21 (centres undefined) [Trimeprazine tartrate] ; retrieve measured filipin (z-score).
2.12

---

Tested on: A431
Experiment: filipin (cholesterol) integrated intensity within LBPA endosomes, Z-score; higher = more cholesterol in LBPA endosomes
Conditions: compound concentration in added solution (µM; 5 µl added to 20 µl cells): 10; 18 h
Structures can show the parent of a compound that is named as a salt.
For each of the molecules below, state its filipin (z-score).
Numbers only.

For orientation, consider the following solved cases.
CC(C)(C)NC[C@H](O)COc1nsnc1N1CCOCC1 [Timolol maleate salt] = -0.435
CN1CCCN(C(c2ccccc2)c2ccc(Cl)cc2)CC1 (stereo not drawn) [Homochlorcyclizine dihydrochloride] = 2.1
CCN1CCC[C@H]1CNC(=O)c1c(O)c(Cl)cc(Cl)c1OC [Raclopride] = -0.489
Cc1c(NC(C)C)c(=O)n(-c2ccccc2)n1C [Isopyrin hydrochloride] = -0.515
CC1(C)O[C@@H]2C[C@H]3[C@@H]4C[C@H](F)C5=CC(=O)C=C[C@]5(C)[C@H]4[C@@H](O)C[C@]3(C)[C@]2(C(=O)CO)O1 [Flunisolide] = -0.256
CCn1cc(C(=O)O)c(=O)c2cnc(N3CCNCC3)nc21 = -0.361
CC(C)NC[C@@H](O)COc1ccc(CC(N)=O)cc1 [(R)-(+)-Atenolol] = -0.512
CCCCOC(=O)c1ccc(N)cc1 = -0.356

Working through the 5 molecules below one at a time, give filipin (z-score) for each.
1. Nc1ccc(C(=O)NCC(=O)O)cc1
2. CN1CCC[C@@H]1CCO[C@](C)(c1ccccc1)c1ccc(Cl)cc1 [Clemastine fumarate]
3. COc1ccccc1Oc1c(NS(=O)(=O)c2ccc(C(C)(C)C)cc2)nc(-c2ncccn2)nc1OCCO
4. NC(=O)C(c1ccccc1)(c1ccccc1)[C@@H]1CCN(CCc2ccc3c(c2)CCO3)C1 [Darifenacin hydrobromide]
5. Nc1c2c(nc3ccccc13)CCCC2 [Tacrine hydrochloride]

1: -0.48; 2: 2.73; 3: -0.493; 4: 2.87; 5: 0.0216
